Target: RSV prefusion F (preF), subtype A (respiratory syncytial virus, subtype A, UniProt P03420 26-513)
Test: BLI, IgG
# Kd per record follows
Experimental readout: Kd (nM)

binder="ADI-14413 (antibody, V domains shown, also called Ab 79) VH: EVQLVESGGVVVQPGGSLRLSCAASGFNFDDYSMHWVRQAPGKGLEWVSVISWDGGITYYADSVKGRFTMSRDNGKKSLYLQMNSLRTEDTAVYYCGKDGDIYSSSSAGIDYWGQGTLVTVSS VL: SYVLTQPPSASGTPGQRVIISCSGSSSNIGSHTVKWYQQLPGTAPKLLIDRNNQRPSGVPDRFSGPKSGTSASLAISGLQSEDEADYYCASWDDSLNGPVFGGGTQLTVL" measurement_units=nM observed=5.45
binder="ADI-21038 (antibody, V domains shown) VH: QVQLVQSGAEVKKPGESLKISCQGFGFSFTSYWIGWVRQTPGKGLEWMGTIYPGDSETRKSPSIQGQVTFSADRSISTAYLQWSGLTASDTAVYYCARLKGGWGTTMAGIRDYFYYGLDVWGQGTTVTVSS VL: EIVLTQSPGTLSLSPGERATLSCRASQSVSSSYLAWYQQKPGQAPRLLIYGASSRATGIPDRFTGSGSGTDFTLTISRLEPEDFAVYYCQQYATSLGGFTFGPGTKVDIK" measurement_units=nM observed=2.93
binder="ADI-14400 (antibody, V domains shown, also called Ab 66) VH: QVQLVQSGGGVVQPGRSLRLSSAASGFTFSSYAMHWVRQAPGKGLEWVAVISHDGSKYYADSVKGRFTISRDNSKSTLNLQMNSLRPEDTAVYYCARGGDVRLYDDSNGYHYDTYYFDYWGQGTLVTVSS VL: EIVLTQSPSSLSASVGDRVTITCRASQGIRNDLGWYQQKPGKAPKLLIYAASTLQSGVPSRFSGSGSGTDFTLTISSLQPEDFATYYCLQDYNYPLTFGGGTKVEIK" measurement_units=nM observed=0.29
binder="ADI-14411 (antibody, V domains shown, also called Ab 77) VH: QVQLVQSGAEVKKPGASVKLSCKASGYTFTRFYIHWVRQAPGQGLEWMGIINPSGGGTSYAQNFQDRVTMTRDTSTSTVYMELSSLRSEDTAVYYCARNGYSTRSLQNNWFDPWGQGTLVTVSS VL: ETTLTQSPSSLSASVGDRVTITCRASQSIDNYLNWYQQKPGKAPKLLIYEASSLQSGVPSRFSGSGSGTDFTLTISSLQPEDFATYYCQQTYSSLPYTFGQGTKVEIK" measurement_units=nM observed=6.12
binder="ADI-21059 (antibody, V domains shown) VH: QVQLVQSGAEVKRPGDSLKISCKGSGYSFTTSWIGWVRQVPGKGLEWMGIIYPGDSNTVYGPSLQGQVTISADKSTNTAYLQWSSLKASDTAMYYCARRDGGTDYLSDAFDIWGQGTFVTVSS VL: DIQMTQSPSSLSASVGDRVTITCRTSQNIVIYLNWYQQKPGKAPKLLIFAASSLPSGVPSRFSGSGSGTDFTLTISSLQPEDVATYYCQQSYNTPGTFGQGTKVDIK" measurement_units=nM observed=3.05
binder="ADI-14602 (antibody, V domains shown, also called Ab 130) VH: EVQLVESGGGVVQPGGSLRLSCAASGFSFSSCGMHWVRQVSGKGLEWVAFIRYDGSNKFYADSVKGRFTISRDNSKNTLYLQMNSLRVEDTAVYYCAKGGLEDVSTGYSPHYYYGMDVWGQGTTVTVSS VL: QPVLTQPPSVSVSPGQTASITCSGDKLAYKYTCWYQQKPGQSPVLVIFQDSKRPSGIPERFSGSNSGNTATLTISGTQALDEADYYCQAWDSSTVVFGGGTKLTVL" measurement_units=nM observed=4.73
binder="ADI-14401 (antibody, V domains shown, also called Ab 67) VH: QVQLVQSGGGLVKPGGSLRLSCAASGFTFSSYSMHWVRQAPGKGLEWVSSISASSSYLNYADSVKGRFTISRDNAKKSLYLQLNTLRADDTAVYYCAREDHDSGTYYLNWFDPWGQGTLVTVSS VL: QSVVTQPPSVSGAPGQRVTISCTGSSSNIGAGYDVHWYQQFPGTGPKLLIYGNSHRPSGVPDRFSGSKSGPSASLAITGLQAEDEADYYCQSYDSSLSGYVFGTGTKVTVL" measurement_units=nM observed=1.19
binder="ADI-21054 (antibody, V domains shown) VH: QVQLVESGGGVVQPGRSLRLSCAASGFSFSNYGMHWVRQAPGKGLEWVVGISFDGSYIFHGGSVTGRFNISRDNSKNTLYLQVNSVRAEDTAVYYCARDPQYYDDWSGYSGLLHYYLYMDVWGKGTTVTVSS VL: DIQLTQSPSTLSASVGDRVTITCRASQSIGTSLAWYQQIPGKAPKLLIYRASSLESGVPSRFSGGGSGTQFTLTISSLQPDDFATYYCQQYNNYSPTFGQGTKLEIK" measurement_units=nM observed=0.185
binder="ADI-20968 (antibody, V domains shown) VH: QVQLQQWGAGLLKPSETLSLTCAMYGGSFSDDYWSWIRQPPGKGLEWIGEVNHGGSTNYNTSLKSRVTISADTSKKQFSLKLRSVTAADTAVYFCARGWRYCNATTCYSKAFDIWGQGTMVTVSS VL: DIQMTQSPSSLSASVGDRVTITCQASQDIDIYLIWYQQKPGRAPKLLIYDASNLKTGVPSRFSGSGSGTEFTFTINNLQPEDFATYYCQQFHDLPLTFGGGTKLEIK" measurement_units=nM observed=0.135
binder="ADI-21017 (antibody, V domains shown) VH: QVQLVESGTEVKKPGASVKVSCKASGYTFTNYGITWVRQAPGQGLEWMGCISGYNGNTNYAQNLQGRVTMTTDTSTNTAYMELRSLISDDTAVYYCARDTGLTAAALLDYWGQGTLVTVSS VL: DIVLTQSPLSLPVTLGQPASISCRSSQSLVYSDGNTYLSWFQQRPGQSPRRLIYKVSNRDSGVPDRFGGSGSGTYFTLKISRVEAEDVGIYYCMQAIHWPLTFGGGTKVEIK" measurement_units=nM observed=0.305
